# credit: PubChem BioAssay (NCI)

- Tested on: SW-620 colon
- test method notes: NCI-60 one-dose screen, 48 h (100 = growth as untreated, 0 = no growth, -100 = all killed)
- settings: 10 µM unless noted
Compounds without any hit were thinned out: in the full panel of roughly 83,000, 20% have a hit. Calls of active or inactive are those of the source. How the source made its calls: active means growth percent below 10; inactive means the rest.
Exercise: for every item that follows, state its recorded growth.

These recorded examples may help you get a feel for the data.
{"compound": "O=C(CCC(=O)OC1CCCC1)OC1CCCC1", "test result": "103% (inactive)"}
{"compound": "CCn1c(=O)c2c(=O)c3c4c(oc3oc2c2ccccc21)C(=O)c1ccccc1C4=O", "test result": "73.5% (inactive)"}
{"compound": "O=C(O)Cc1ccc2c(c1)Cc1cccnc1O2", "test result": "106% (inactive)"}
{"compound": "COc1ccc(C2CC(=O)Nc3c2c(C)nn3-c2nc3ccccc3[nH]2)cc1OC (stereo unspecified)", "test result": "78.3% (inactive)"}
{"compound": "C=CCc1cc(Cl)cc2c(OC(C)=O)c(C(C)=O)c(-c3ccccc3)nc12", "test result": "107% (inactive)"}

Switching to the query record.
growth reading for Cc1cc(C)c2c(=O)[nH]c(SCC(=O)Nc3cccc(S(=O)(=O)N(C)C)c3)nc2n1 : 105% (inactive)
